Molecular target: Alpha-1A adrenergic receptor (Rattus norvegicus, UniProt P43140)
Sequence (P43140 whole entry): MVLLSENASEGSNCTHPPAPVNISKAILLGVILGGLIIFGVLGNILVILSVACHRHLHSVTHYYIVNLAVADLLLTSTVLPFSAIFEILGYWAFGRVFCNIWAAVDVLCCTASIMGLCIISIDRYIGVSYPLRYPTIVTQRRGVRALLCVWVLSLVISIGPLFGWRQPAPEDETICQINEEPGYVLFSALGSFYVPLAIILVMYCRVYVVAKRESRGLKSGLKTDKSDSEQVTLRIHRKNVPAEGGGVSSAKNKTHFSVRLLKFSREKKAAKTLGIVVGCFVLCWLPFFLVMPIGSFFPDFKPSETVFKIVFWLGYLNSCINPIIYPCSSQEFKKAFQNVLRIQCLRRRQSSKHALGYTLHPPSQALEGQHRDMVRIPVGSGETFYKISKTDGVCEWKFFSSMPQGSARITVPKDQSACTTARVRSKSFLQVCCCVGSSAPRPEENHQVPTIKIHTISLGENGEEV
Assay: Antagonistic affinity against Alpha-1A adrenergic receptor was determined in isolated prostatic vas deferens tissue from rat
Assay type: functional, tissue-based
Conditions: read-out: pA2 (converted)
PARAMETER_MEASURED: Kb (nM)

>>> result_value("COc1cc2nc(N3CCN(C(=O)c4ccco4)[C@H]4CCCC[C@H]43)nc(N)c2cc1OC")
33.1
>>> result_value("COc1cc2nc(NCCSSCCNC(=O)c3ccco3)nc(N)c2cc1OC")
1780
>>> result_value("COc1cc2nc(N(C)CCSSCCN(C)C(=O)c3ccco3)nc(N)c2cc1OC")
29.5
>>> result_value("COc1cc2nc(N(C)CCCCCCN(C)C(=O)c3ccco3)nc(N)c2cc1OC")
0.912

Data provenance: ChEMBL document CHEMBL1130820
